molecular target: Delta-type opioid receptor (Homo sapiens) (UniProt P41143); experiment: Antagonist activity at human delta opioid receptor expressed in CHO cells assessed as inhibition of DPDPE-stimulated [35S]GTPgammaS binding; format: functional, cell-based
Sequence (P41143 whole entry): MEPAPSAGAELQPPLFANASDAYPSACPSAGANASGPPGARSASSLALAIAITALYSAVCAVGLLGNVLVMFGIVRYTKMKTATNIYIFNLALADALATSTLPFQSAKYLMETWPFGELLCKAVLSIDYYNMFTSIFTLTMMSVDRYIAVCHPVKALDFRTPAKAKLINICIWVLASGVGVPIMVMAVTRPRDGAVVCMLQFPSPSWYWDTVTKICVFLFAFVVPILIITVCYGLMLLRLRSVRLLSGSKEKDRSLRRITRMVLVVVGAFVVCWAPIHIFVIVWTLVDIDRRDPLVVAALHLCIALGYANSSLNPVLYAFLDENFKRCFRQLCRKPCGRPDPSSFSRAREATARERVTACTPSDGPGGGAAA
Would you kindly list Ke for each of these compounds?

Some compounds with recorded Ke:
Cc1cccc(Oc2ccc(C(=O)N[C@H](CN3CCN(c4cccc(O)c4)[C@@H](C)C3)C(C)C)cc2Cl)c1 | 1100 nM
CC(C)[C@@H](CN1CCN(c2cccc(O)c2)[C@@H](C)C1)NC(=O)c1ccc(Oc2ccccc2)nc1 | 1790 nM

Please state, for each entry, its recorded Ke.
1. COc1cc(Oc2cccc(C)c2)ccc1C(=O)N[C@H](CN1CCN(c2cccc(O)c2)[C@@H](C)C1)C(C)C
2. CC(C)[C@@H](CN1CCN(c2cccc(O)c2)[C@@H](C)C1)NC(=O)c1ccc(Oc2cccc(C(F)(F)F)c2)cc1
3. Cc1cccc(Oc2ccc(C(=O)N[C@H](CN3CCN(c4cccc(O)c4)[C@@H](C)C3)C(C)C)cc2)c1
4. Cc1cc(C(=O)N[C@H](CN2CCN(c3cccc(O)c3)[C@@H](C)C2)C(C)C)ccc1Oc1ccccc1
5. COc1cccc(Oc2ccc(C(=O)N[C@H](CN3CCN(c4cccc(O)c4)[C@@H](C)C3)C(C)C)cc2)c1
6. Cc1cccc(Oc2ccc(C(=O)N[C@H](CN3CCN(c4cccc(O)c4)[C@@H](C)C3)C(C)C)cc2O)c1
7. CC(C)[C@@H](CN1CCN(c2cccc(O)c2)[C@@H](C)C1)NC(=O)[C@H]1Cc2ccc(O)cc2CN1
8. Cc1cccc(Oc2ccc(C(=O)N[C@H](CN3CCN(c4cccc(O)c4)[C@@H](C)C3)C(C)C)cc2C)c1

["63 nM", "54 nM", "131 nM", "435 nM", "1500 nM", "81 nM", "1310 nM", "21 nM"]

Please state, for each entry, its recorded Ke.
1. COc1ccccc1Oc1ccc(C(=O)N[C@H](CN2CCN(c3cccc(O)c3)[C@@H](C)C2)C(C)C)cc1
2. CC(C)[C@@H](CN1CCN(c2cccc(O)c2)[C@@H](C)C1)NC(=O)c1ccc(Oc2ccc(O)cc2)cc1
3. CC(C)[C@@H](CN1CCN(c2cccc(O)c2)[C@@H](C)C1)NC(=O)c1ccc(Oc2ccccc2)cc1
4. CC(C)[C@@H](CN1CCN(c2cccc(O)c2)[C@@H](C)C1)NC(=O)c1ccc(Oc2cccc(Br)c2)cc1
5. Cc1ccc(Oc2ccc(C(=O)N[C@H](CN3CCN(c4cccc(O)c4)[C@@H](C)C3)C(C)C)cc2)cc1

1: 869 nM; 2: 1700 nM; 3: 570 nM; 4: 42 nM; 5: 188 nM

Please report the recorded Ke for "CC(C)[C@@H](CN1CCN(c2cccc(O)c2)[C@@H](C)C1)NC(=O)c1ccc(Oc2cccc(Cl)c2)cc1" .
8.3 nM
